Kindly state log p for each of the entries shown.
TEST: log P by HPLC on reversed-phase columns (C 18), EEC Directive 79/831 Annex V.A8
Type: physicochemical
CONDITIONS: [a] HPLC, acid region pH 2.3, 0.1% aqueous phosphoric acid and acetonitrile

Consider the following illustrative entries.
In: Requested field: log p. Item: Cc1cc(Oc2nc(Cc3c(Cl)cccc3Cl)ns2)c(C)cc1N=CN1CCCCC1
Out: 2.6^[a]

In: And then CCN(C)C=Nc1cc(C)c(Oc2nc(Cc3ccc(-c4ccccc4)cc3)ns2)cc1C , what is it?
Out: 2.8^[a]

In: And then Cc1cc(Oc2nc(Cc3ccccc3Br)ns2)c(C)cc1N=CN1CCCCC1 , what is it?
Out: 2.36^[a]

In: And then Cc1cc(Oc2nc(Cc3ccc(F)c(C(F)(F)F)c3)ns2)c(C)cc1N=CN1CCCCC1 , what is it?
Out: 2.44^[a]

In: And then CCN(C)C=Nc1cc(C)c(Oc2nc(Cc3ccc4ccccc4c3)ns2)cc1C [Example 97] , what is it?
Out: 2.22^[a]

Please supply log p for each of the following items, keeping them in order.
1. Cc1ccc(Cc2nsc(Oc3cc(C)c(N=CN4CCCCC4)cc3C)n2)c([N+](=O)[O-])c1
2. Cc1cc(Oc2nc(Cc3ccc(F)cc3)ns2)c(C)cc1N=CN1CCCCC1
3. CCN(C)C=Nc1cc(C)c(Oc2nc(Cc3ccccc3C)ns2)cc1C

Out:
1: 2.44^[a]; 2: 2.05^[a]; 3: 1.89^[a]

* * *

TEST: log P by HPLC on reversed-phase columns (C 18), EEC Directive 79/831 Annex V.A8
Type: physicochemical
CONDITIONS: reversed-phase C18 HPLC column, pH 2.3, [a] HPLC, acid region pH 2.3, 0.1% aqueous phosphoric acid and acetonitrile; read-out: log p
Kindly state chromatographic logP for each of the entries shown.
Numbers only.

Please supply chromatographic logP for each of the following items, keeping them in order.
1. CCN(C)C=Nc1cc(C)c(Oc2nc(Cc3ccccc3OC)ns2)cc1C
2. Cc1cc(Oc2nc(Cc3ccc(Cl)c(Cl)c3)ns2)c(C)cc1N=CN(C)C(C)C
3. CCN(C)C=Nc1cc(Cl)c(Oc2nc(C3(c4ccc(Cl)cc4)CC3)ns2)cc1C
4. CCN(C)C=Nc1cc(C)c(Oc2nc(Cc3ccc(C)cc3[N+](=O)[O-])ns2)cc1C
5. CCN(C)C=Nc1cc(C)c(Oc2nc(Cc3cc(Br)ccc3C)ns2)cc1C

Out:
1: 1.83; 2: 2.35; 3: 2.55; 4: 1.89; 5: 2.28

* * *

TEST: log P by HPLC on reversed-phase columns (C 18), EEC Directive 79/831 Annex V.A8
Type: physicochemical
CONDITIONS: reversed-phase C18 HPLC column, pH 2.3, [a] HPLC, acid region pH 2.3, 0.1% aqueous phosphoric acid and acetonitrile; read-out: log p
For each record, check the reported chromatographic logP: if it is below 2 write Yes, else write No.

These solved cases illustrate the format of a correct answer.
In: For Cc1cc(Oc2nc(Cc3ccc(Cl)cc3)ns2)c(C)cc1N=CN1CCCCC1 , is the recorded chromatographic logP below the cut-off of 2?
Out: No

In: And then Cc1cc(Oc2nc(C(C)(C)c3ccc(Cl)cc3)ns2)c(C)cc1N=CN1CCCCC1 , what is it?
Out: No

In: And then CCN(C)C=Nc1cc(C)c(Oc2nc(C(C)c3ccccc3)ns2)cc1C (centres unmarked) , what is it?
Out: Yes

In: And then CCN(C)C=Nc1cc(C)c(Oc2nc(Cc3ccccc3C(F)(F)F)ns2)cc1C , what is it?
Out: No

In: And then CCN(C)C=Nc1cc(Cl)c(Oc2nc(C(C)(C)c3ccc(Cl)cc3)ns2)cc1C , what is it?
Out: No

Would you kindly look at the next entry?
In: For Cc1cc(Oc2nc(Cc3ccc(Cl)cc3Cl)ns2)c(C)cc1N=CN(C)C(C)C , is the recorded chromatographic logP below the cut-off of 2?
Out: No

* * *

TEST: log P by HPLC on reversed-phase columns (C 18), EEC Directive 79/831 Annex V.A8
Format: physicochemical
CONDITIONS: reversed-phase C18 HPLC column, pH 2.3, [a] HPLC, acid region pH 2.3, 0.1% aqueous phosphoric acid and acetonitrile; read-out: log p
ASSAY_READOUT: chromatographic logP

Consider the following illustrative entries.
In: Requested field: chromatographic logP. Item: Cc1cc(Oc2nc(C(C)(C)c3ccc(Cl)cc3)ns2)c(Cl)cc1N=CN(C)C(C)C [Example 30]
Out: 2.86

In: And then Cc1cc(Oc2nc(C(C)c3ccc(Cl)cc3)ns2)c(C)cc1N=CN(C)C(C)C (centres unmarked) [Example 19] , what is it?
Out: 2.46

In: And then CCN(C)C=Nc1cc(C)c(Oc2nc(Cc3ccc(Cl)cc3Cl)ns2)cc1C [Example 11] , what is it?
Out: 2.19

In: And then Cc1cc(Oc2nc(C(C)(C)c3ccc(Cl)cc3)ns2)c(Cl)cc1N=CN1CCCCC1 [Example 29] , what is it?
Out: 2.96

In: And then Cc1cc(Oc2nc(C(C)c3ccc(Cl)cc3)ns2)c(Cl)cc1N=CN(C)C(C)C (centres unmarked) [Example 22] , what is it?
Out: 2.52

In: And then CCN(C)C=Nc1cc(C)c(Oc2nc(C(C)c3ccc(Cl)cc3)ns2)cc1C (centres unmarked) [Example 17] , what is it?
Out: 2.34

In: And then COc1ccccc1Cc1nsc(Oc2cc(C)c(N=CN3CCCCC3)cc2C)n1 [Example 50] , what is it?
Out: 2.05

***
In: Requested field: chromatographic logP. Item: CCN(C)C=Nc1cc(C)c(Oc2nc(Cc3cccc(Cl)c3)ns2)cc1C [Example 35]
Out: 2.31

* * *

TEST: log P by HPLC on reversed-phase columns (C 18), EEC Directive 79/831 Annex V.A8
Format: physicochemical
CONDITIONS: reversed-phase C18 HPLC column, pH 2.3, [a] HPLC, acid region pH 2.3, 0.1% aqueous phosphoric acid and acetonitrile; read-out: log p
Kindly state chromatographic logP for each of the entries shown.

Consider the following illustrative entries.
In: Requested field: chromatographic logP. Item: Cc1cc(Oc2nc(C(C)(C)c3ccc(Cl)cc3)ns2)c(C)cc1N=CN(C)C(C)C [Example 27]
Out: 2.71

In: And then Cc1cc(Oc2nc(Cc3cccc(Cl)c3)ns2)c(C)cc1N=CN1CCCCC1 [Example 34] , what is it?
Out: 2.13

In: And then CCN(C)C=Nc1cc(C)c(Oc2nc(Cc3ccc(Cl)c(Cl)c3)ns2)cc1C [Example 51] , what is it?
Out: 2.3

In: And then Cc1cc(Oc2nc(Cc3ccc(Cl)cc3)ns2)c(Cl)cc1N=CN1CCCCC1 [Example 4] , what is it?
Out: 2.53

In: And then Cc1cc(Oc2nc(Cc3ccccc3)ns2)c(C)cc1N=CN1CCCCC1 [Example 36] , what is it?
Out: 1.91

In: And then Cc1cc(Oc2nc(C(C)c3ccccc3)ns2)c(C)cc1N=CN1CCCCC1 (stereo not drawn) [Example 8] , what is it?
Out: 1.95

In: And then CCN(C)C=Nc1cc(C)c(Oc2nc(Cc3ccc4c(c3)OCO4)ns2)cc1C [Example 46] , what is it?
Out: 1.65

In: And then CCN(C)C=Nc1cc(C)c(Oc2nc(C3(c4ccc(Cl)cc4)CC3)ns2)cc1C [Example 37] , what is it?
Out: 2.21

Let us move to another entry and its chromatographic logP.
In: Requested field: chromatographic logP. Item: CCC(c1ccccc1)c1nsc(Oc2cc(C)c(N=CN(C)CC)cc2C)n1 (stereo not drawn) [Example 6]
Out: 2.08

* * *

Kindly state log p for each of the entries shown.
TEST: log P by HPLC on reversed-phase columns (C 18), EEC Directive 79/831 Annex V.A8
Format: physicochemical
CONDITIONS: [a] HPLC, acid region pH 2.3, 0.1% aqueous phosphoric acid and acetonitrile

In: Requested field: log p. Item: Cc1cc(Oc2nc(Cc3cc(F)ccc3F)ns2)c(C)cc1N=CN1CCCCC1 [Example 84]
Out: 2.4^[a]

In: And then COc1ccc(Cc2nsc(Oc3cc(C)c(N=CN4CCCCC4)cc3C)n2)cc1 [Example 76] , what is it?
Out: 1.9^[a]

In: And then CCN(C)C=Nc1cc(C)c(Oc2nc(Cc3cccc(C)c3)ns2)cc1C [Example 113] , what is it?
Out: 2.28^[a]

In: And then Cc1cc(Oc2nc(Cc3c(F)cc(F)cc3F)ns2)c(C)cc1N=CN1CCCCC1 [Example 117] , what is it?
Out: 2.33^[a]

In: And then CCN(C)C=Nc1cc(C)c(Oc2nc(Cc3ccc(F)c(F)c3)ns2)cc1C [Example 54] , what is it?
Out: 1.86^[a]

Please supply log p for each of the following items, keeping them in order.
1. Cc1ccc(Br)cc1Cc1nsc(Oc2cc(C)c(N=CN3CCCCC3)cc2C)n1 [Example 83]
2. CCOc1ccc(Cc2nsc(Oc3cc(C)c(N=CN4CCCCC4)cc3C)n2)cc1 [Example 90]
3. CCOCC(NC=Nc1cc(C)c(Oc2nc(Cc3ccc(OC(F)(F)F)cc3)ns2)cc1C)C1CC1 (stereo not drawn) [Example 101]
4. Cc1cc(Oc2nc(Cc3ccc(Cl)cc3)ns2)c(C)cc1N=CN(C)CC(F)F [Example 53]
5. Cc1cc(F)c(Br)cc1Cc1nsc(Oc2cc(C)c(N=CN3CCCCC3)cc2C)n1 [Example 115]
6. CCN(C)C=Nc1cc(C)c(Oc2nc(Cc3ccc([N+](=O)[O-])cc3)ns2)cc1C [Example 64]

Out:
1. 2.79^[a]
2. 2.23^[a]
3. 2.85^[a]
4. 2.18^[a]
5. 2.76^[a]
6. 2.11^[a]
